Target: T1, recombinant human CTGF-Fc protein (Creative Biomart) (human)
T1 construct: Bought; also called human CTGF with a human IgG1 Fc Tag
T1 sequence (chain, as listed by the source limits assumed): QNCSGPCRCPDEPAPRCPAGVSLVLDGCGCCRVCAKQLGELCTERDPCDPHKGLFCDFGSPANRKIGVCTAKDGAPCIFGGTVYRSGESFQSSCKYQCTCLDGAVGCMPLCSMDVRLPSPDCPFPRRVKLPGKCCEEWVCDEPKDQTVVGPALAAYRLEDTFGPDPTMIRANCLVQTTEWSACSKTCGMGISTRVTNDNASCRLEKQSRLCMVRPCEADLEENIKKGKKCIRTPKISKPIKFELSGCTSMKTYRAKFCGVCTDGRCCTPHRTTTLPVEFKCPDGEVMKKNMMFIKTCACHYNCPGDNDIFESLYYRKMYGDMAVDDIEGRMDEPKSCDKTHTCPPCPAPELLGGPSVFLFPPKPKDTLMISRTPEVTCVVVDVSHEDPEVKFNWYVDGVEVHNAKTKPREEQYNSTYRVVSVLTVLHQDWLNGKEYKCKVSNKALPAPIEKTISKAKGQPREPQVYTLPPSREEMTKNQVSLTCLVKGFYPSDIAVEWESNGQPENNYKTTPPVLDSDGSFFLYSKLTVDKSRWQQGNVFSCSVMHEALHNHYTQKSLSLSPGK
Assay: SPR (Biacore)
Protocol: The binding of exemplary lipocalin muteins to human (Creative Biomart), cynomolgus, rat (R&D Systems) and mouse CTGF (Abbexa) was determined by SPR using a Biacore instrument (Cytiva, formerly GE Healthcare). Some targets were fused to a human IgG1 Fc tag, and captured via the anti-human IgG antibody kit, others were directly immobilized. For some measurements, human CTGF with a human IgG1 Fc Tag or rat or murine CTGF without a tag were directly immobilized to a CM5 Chip. […]
measure: kon (M⁻¹ s⁻¹)

[[record]]
binder = "lipocalin mutein of SEQ ID NO: 15 (designed binder, also called hNGAL mutein; not shown: C-terminal His-tag) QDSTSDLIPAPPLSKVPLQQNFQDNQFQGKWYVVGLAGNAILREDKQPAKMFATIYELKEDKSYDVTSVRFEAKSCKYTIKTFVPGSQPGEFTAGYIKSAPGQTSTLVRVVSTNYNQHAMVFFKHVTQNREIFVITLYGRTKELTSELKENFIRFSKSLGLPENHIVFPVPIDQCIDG"
observed_measurement = 81700

[[record]]
binder = "lipocalin mutein of SEQ ID NO: 3 (designed binder, Parent hNGAL mutein; also called hNGAL mutein) QDSTSDLIPAPPLSKVPLQQNFQDNQFHGKWYVVGRAGNNRLREDKDPPKMWATIYELKEDKSYNVTHVHFMTKKCRYIIDTFVPGSQPGEFTLGAIKSGPGMTSPLVRIVSTNYNQHAMVFFKWVNQNREWFTITLYGRTKELTSELKENFIRFSKSLGLPENHIVFPVPIDQCIDGSAWSHPQFEK"
observed_measurement = 200000

